experiment: in vivo; details: SD, rat, iv, 2.5 mg/kg
Numbered stars: 1 amine (or outer) side, 2 acyl side, 3 side chain; on linkers, the order of the positions; unused ones are H or OH. Bridge positions count the residues as written; N and C are the ends. Square brackets hold non-standard residues; d marks the D form. Peptide text beside a SMILES is read from it. * marks the point of attachment. Orn(4R-OH,5R-OCH2CH2NMe3+) = C[N+](C)(C)CCO[C@@H](N[*:3])[C@H](O)C[C@H](N[*:1])C(=O)[*:2]; hTyr(3S-OH,4S-OH) = N[C@H](C(=O)O)[C@H](O)[C@@H](O)c1ccc(O)cc1; X1 = CCCCCOc1cc(F)c(C#Cc2ccc3cc(C(=O)*)ccc3c2)cc1F; Pro(3S-OH,4S-Me) = C[C@H]1CN[C@H](C(=O)O)[C@H]1O; Hyp = O=C(O)[C@@H]1C[C@@H](O)CN1
assayEndpoint: clearance (mL/min/kg)
Numeric only. Scale: mL/min/kg

Q: For the molecule CCCCCOc1cc(F)c(C#Cc2ccc3cc(C(=O)N[C@H]4C[C@@H](O)[C@@H](OCC[N+](C)(C)C)NC(=O)[C@@H]5[C@@H](O)[C@@H](C)CN5C(=O)[C@H]([C@@H](C)O)NC(=O)[C@H]([C@H](O)[C@@H](O)c5ccc(O)cc5)NC(=O)[C@@H]5C[C@@H](O)CN5C(=O)[C@H]([C@@H](C)O)NC4=O)ccc3c2)cc1F [Example 16] (X1-[Orn(4R-OH,5R-OCH2CH2NMe3+)]T[Hyp][hTyr(3S-OH,4S-OH)]T[Pro(3S-OH,4S-Me)]; lactam 1-C) , report clearance.
Ans: 0.15
